Molecular target: Retinoic acid receptor RXR-alpha (Homo sapiens)
Sequence (whole entry): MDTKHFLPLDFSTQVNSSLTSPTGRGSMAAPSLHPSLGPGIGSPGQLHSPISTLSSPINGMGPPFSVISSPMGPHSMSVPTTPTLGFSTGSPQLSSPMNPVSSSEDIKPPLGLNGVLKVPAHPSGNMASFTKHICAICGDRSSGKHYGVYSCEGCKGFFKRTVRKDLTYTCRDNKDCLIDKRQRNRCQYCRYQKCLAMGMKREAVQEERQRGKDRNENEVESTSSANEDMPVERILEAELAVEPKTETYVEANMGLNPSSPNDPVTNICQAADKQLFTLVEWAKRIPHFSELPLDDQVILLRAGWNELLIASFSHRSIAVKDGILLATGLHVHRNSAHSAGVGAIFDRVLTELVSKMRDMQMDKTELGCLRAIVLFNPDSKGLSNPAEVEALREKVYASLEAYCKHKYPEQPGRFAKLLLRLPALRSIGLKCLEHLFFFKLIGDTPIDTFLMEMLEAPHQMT
Assay: Activation of human RXRalpha activity expressed in COS1 cells assessed as induction ratio at 50 uM after 12 hrs by RXRE-luciferase reporter gene assay relative to untreated control
Type: cell-based
Settings: COS-1
Metric: Ratio

Below, each entry is followed by its recorded Ratio result.
>>> recorded_measurement("[N-]=[N+]=NCCCn1c2c(c3ccc([N+](=O)[O-])cc3c1=O)C(=O)c1ccccc1-2")
"< 1"
>>> recorded_measurement("COC(=O)/C=C/c1ccc2c3c(n(C)c(=O)c2c1)-c1ccccc1C3=O")
"< 1"
>>> recorded_measurement("NCCCn1c2c(c3ccc(N)cc3c1=O)Cc1ccccc1-2")
"> 1"
>>> recorded_measurement("NCCCn1c2c(c3ccc(C(=O)O)cc3c1=O)C(=O)c1ccccc1-2")
"< 1"
>>> recorded_measurement("COC(=O)c1ccc2c3c(n(CCCN(C)C)c(=O)c2c1)-c1ccccc1C3=O")
"> 1"
>>> recorded_measurement("O=C1c2ccccc2-c2c1c1ccccc1c(=O)n2CCCn1ccnc1")
"< 1"
>>> recorded_measurement("CCCCn1c2c(c3ccccc3c1=O)C(=O)c1ccccc1-2")
"< 1"
>>> recorded_measurement("Cn1c2c(c3ccc(CCCC(=O)O)cc3c1=O)C(=O)c1ccccc1-2")
"< 1"
>>> recorded_measurement("CN(C)CCCn1c2c(c3ccc(C#N)cc3c1=O)C(=O)c1cc3c(cc1-2)OCO3")
"< 1"

Next:
[Q] Fill in reported Ratio for this entry: NCCCn1c2c(c3ccc(NC(=O)CCC(=O)O)cc3c1=O)C(=O)c1ccccc1-2
[A] < 1
